Value source: patent US7713994B2

Test system: HCT-116
protocol-summary: Cytotoxicity assay (SRB), HCT-116
Format: cell-based
condition-summary: Homo sapiens, HCT-116, 72 h, read-out: In Vitro Cellular Activity IC50 HCT116
Mark Criterion met for IC50 under 5 µM, Criterion not met if at or over.

Confirm or reject: IC50 of CN(C)NC(=O)Cc1ccc(N/C=C2\C(=O)NC(=O)c3ccc(Br)cc32)cc1 [Example 283] lies strictly below 5 µM
Criterion not met

Confirm or reject: IC50 of O=C1NC(=O)c2ccc(I)cc2/C1=C/NCc1ccn(-c2ccsc2)c(=O)c1 [Example 539] lies strictly below 5 µM
Criterion met

Confirm or reject: IC50 of CCOP(=O)(OCC)c1ccc2c(c1)/C(=C/Nc1ccc(N3CCN(C)CC3)cc1)C(=O)NC2=O [Example 284] lies strictly below 5 µM
Criterion not met

Confirm or reject: IC50 of CC(C)(C)c1ccc2c(c1)/C(=C/NCc1cc(O)c(-c3ccoc3)cn1)C(=O)NC2=O [Example 532] lies strictly below 5 µM
Criterion met

Confirm or reject: IC50 of O=C1NC(=O)c2ccc(Br)cc2/C1=C/Nc1ccc(CN2CCCC2)cc1 [Example 59] lies strictly below 5 µM
Criterion met

----------
Measured Vss_obs accompanies every entry in the list below.
protocol-summary: I.V. and P.O. Dosing in Mice
Type: in vivo
condition-summary: dose i.v. 2 mg/kg
Number first, unit second.

These recorded examples may help you get a feel for the data.
1) O=C1NC(=O)c2ccc(I)cc2/C1=C/NCc1ccn(-c2ccoc2)c(=O)c1 [Example 525] ... 0.4 L/kg
2) O=C1NC(=O)c2ccc(I)cc2/C1=C/NCc1ccn(-c2ccccc2)c(=O)c1 [Example 517] ... 0.5 L/kg
3) O=C1NC(=O)c2ccc(I)cc2/C1=C/NCc1ccc(-c2ccoc2)c(O)c1 [Example 506] ... 6.7 L/kg
4) O=C1NC(=O)c2ccc(I)cc2/C1=C/NCc1ccn(-c2ccsc2)c(=O)c1 [Example 539] ... 0.3 L/kg
5) CC(C)(C)c1ccc2c(c1)/C(=C/NCc1ccc(-c3ccoc3)c(O)c1)C(=O)NC2=O [Example 535] ... 4.1 L/kg
6) O=C1NC(=O)c2ccc(I)cc2/C1=C/NCc1cc(O)c(-c2ccoc2)cn1 [Example 527] ... 0.5 L/kg
7) CC(C)(C)c1ccc2c(c1)/C(=C/NCc1cc(O)c(-c3ccccc3)cn1)C(=O)NC2=O [Example 531] ... 0.9 L/kg
8) CN1CCN(c2ccc(N/C=C3\C(=O)NC(=O)c4ccc(-c5ccsc5)cc43)cc2)CC1 [Example 107] ... 11 L/kg

Vss_obs for O=C1NC(=O)c2ccc(I)cc2/C1=C/NCc1cc(O)c(-c2ccccc2)cn1 [Example 524] ?
2.4 L/kg

Vss_obs for CCCOc1ccc(CN/C=C2\C(=O)NC(=O)c3ccc(I)cc32)cc1O [Example 178] ?
1.5 L/kg

Vss_obs for CCCOc1cnc(CNC=C2C(=O)NC(=O)c3ccc(I)cc32)cc1O [Example 364] ?
0.2 L/kg

Vss_obs for CCCOc1cnc(CN/C=C2\C(=O)NC(=O)c3ccc(C(C)(C)C)cc32)cc1O [Example 530] ?
0.2 L/kg

Vss_obs for CCCOc1cnc(CN/C=C2\C(=O)NC(=O)c3ccc(C4CCCC4)cc32)cc1O [Example 538] ?
0.2 L/kg

----------
measurement-type: melting point

1. COc1cc(CN/C=C2\C(=O)NC(=O)c3ccc(-c4ccccc4)cc32)cc(O)c1OC [Example 86] ... 250 to 251 °C
2. CN(C)Cc1ccc(N/C=C2\C(=O)NC(=O)c3ccc(Br)cc32)cc1 [Example 73] ... 159 to 160 °C
3. O=C1NC(=O)c2ccc(I)cc2/C1=C/Nc1ccc(Cn2ccnc2)cc1 [Example 273] ... 275 to 276 °C
4. CN1CCN(c2ccc3c(c2)/C(=C/Nc2ccc(CN4CCCCC4)cc2)C(=O)NC3=O)CC1 [Example 123] ... 192 to 193 °C
5. CN(C)C/C=C/C(=O)Nc1ccc(CN/C=C2\C(=O)NC(=O)c3ccc(I)cc32)cc1O [Example 359] ... 185 to 186 °C
6. O=C1NC(=O)c2ccc(Br)cc2/C1=C/NCc1ccc2c(c1)OCO2 [Example 109] ... 227 to 228 °C
7. C[C@@H]1CN(c2ccc(N/C=C3\C(=O)NC(=O)c4ccc(-c5ccoc5)cc43)cc2F)C[C@H](C)N1 [Example 324] ... 222 to 223 °C

melting point for CN1CCN(c2ccc(N/C=C3\C(=O)NC(=O)c4ccc(I)cc43)cn2)CC1 [Example 237] ?
189 to 190 °C

----------
Test system: LoVo
protocol-summary: Cytotoxicity assay (SRB), LoVo
Type: cell-based
condition-summary: Homo sapiens, LoVo, 72 h, LoVo cells, SRB, three days; read-out: In Vitro Cellular Activity IC50 LOVO
pIC50: −log10 of the molar value.
Classify by measured pIC50: T if it is equal to or exceeds 5, F if it is smaller.

Example results:
1. O=C1NC(=O)c2ccccc2/C1=C/Nc1ccc(CN2CCCCC2)cc1 ... F
2. O=C1NC(=O)c2ccccc2/C1=C/Nc1cccc(CCN2CCCC2)c1 ... F
3. COc1cc(CN/C=C2\C(=O)NC(=O)c3ccc(-c4ccsc4)cc32)cc(O)c1OC ... T
4. CN1CCN(c2ccc(N/C=C3\C(=O)NC(=O)c4ccc([N+](=O)[O-])cc43)cc2)CC1 ... T
5. O=C1NC(=O)c2ccccc2/C1=C/Nc1ccc2ncccc2c1 ... F

Hi team, for C=CC(=O)Nc1ccc2c(c1)/C(=C/Nc1ccc(N3CCN(C)CC3)cc1)C(=O)NC2=O , is the recorded pIC50 at or above 5?
T

Hi team, for O=C1NC(=O)c2ccc(-c3cccnc3)cc2/C1=C/Nc1ccc(CN2CCCCC2)cc1 , is the recorded pIC50 at or above 5?
F

Hi team, for COC[C@H]1CCCN1c1ccc2c(c1)/C(=C/Nc1ccc(CN3CCCCC3)cc1)C(=O)NC2=O , is the recorded pIC50 at or above 5?
T

----------
Measured pIC50 accompanies every entry in the list below.
Tested on: BT474
protocol-summary: Cytotoxicity assay (SRB), BT474
Type: cell-based
condition-summary: Homo sapiens, BT-474, 144 h, BT474 cells, SRB, 6 days; read-out: In Vitro Cellular Activity IC50 BT474
Friendly reminder that pIC50 comes from taking -log10 of the concentration in mol/L.

1. CN(CCO)c1ccc(N/C=C2\C(=O)NC(=O)c3ccc(Br)cc32)cc1 [Example 244] ... 5.03

pIC50 for CN1CCN(C(=O)Nc2ccc(N/C=C3\C(=O)NC(=O)c4ccc(Br)cc43)cc2)CC1 [Example 215] ?
5.13

pIC50 for CN1CCN(c2ccc(N/C=C3\C(=O)NC(=O)c4ccc(-c5ccc(F)cc5)cc43)cc2F)CC1 [Example 290] ?
5.60

pIC50 for COc1ccc(-c2ccc3c(c2)/C(=C/Nc2ccc(CN4CCCCC4)cc2)C(=O)NC3=O)cc1 [Example 116] ?
5.55

----------
System: MCF-7
protocol-summary: Cytotoxicity assay (SRB), MCF-7
Format: cell-based
condition-summary: Homo sapiens, MCF7, 72 h, MCF-7 cells, 3 days, SRB; read-out: In Vitro Cellular Activity IC50 MCF-7
measurement-type: pIC50
Friendly reminder that pIC50 comes from taking -log10 of the concentration in mol/L.

These recorded examples may help you get a feel for the data.
1. CN1CCCC1c1ccc(N/C=C2\C(=O)NC(=O)c3ccc(-c4cccs4)cc32)cc1 (centres unmarked) ... 5.60
2. O=C1NC(=O)c2ccc(-c3cccc(F)c3)cc2C1=CNCc1ccc(O)c(O)c1 ... 4.55
3. O=C1NC(=O)c2ccc(I)cc2/C1=C/Nc1ccc(C2CCCN2)cc1 (centres unmarked) ... 5.46

pIC50 for O=C1NC(=O)c2ccc(-c3ccco3)cc2/C1=C/Nc1ccc(CN2CCC[C@H]2CO)cc1 ?
5.92

pIC50 for NS(=O)(=O)c1ccc(CNC=C2C(=O)NC(=O)c3ccc(-c4ccc(F)cc4)cc32)cc1 ?
4.80

pIC50 for Cn1ccc(CN/C=C2\C(=O)NC(=O)c3ccc(I)cc32)cc1=O ?
5.37

pIC50 for COCC1CCN(c2ccc(N/C=C3\C(=O)NC(=O)c4ccc(I)cc43)cc2)CC1 ?
4.59

pIC50 for NS(=O)(=O)c1ccc(CNC=C2C(=O)NC(=O)c3ccc(C=Cc4cnccn4)cc32)cc1 ?
5.11

----------
measurement-type: melting point

melting point for CN1CCN(c2ccc(N/C=C3\C(=O)NC(=O)c4ccc(NS(=O)(=O)c5ccccc5)cc43)cc2)CC1 ?
289 to 290 °C

melting point for O=C1NC(=O)c2ccccc2/C1=C/Nc1ccc(-c2ccccc2)cc1 ?
261 to 262 °C

melting point for COc1ccc(CN/C=C2\C(=O)NC(=O)c3ccc(-c4cn[nH]c4)cc32)cc1O ?
252 to 253 °C

melting point for O=C1NC(=O)c2ccc(C3CCCC3)cc2/C1=C/NCc1cc(O)c(-c2ccoc2)cn1 ?
279 to 283 °C (dec.)
